experiment: Pharmacokinetic test in mice; type: in vivo, ICR mice; details: male, ICR, iv; mouse plasma, i.v. 2.5 mg/kg
Readout Label: AUC(0-t) (µg·h/mL)
Give the value in µg·h/mL but do not write µg·h/mL after it.

Look at this compound and give its reported AUC(0-t). CCc1cc2ncc(CN3CC=C(c4ccc(C(=O)NC)nc4)CC3)cc2[nH]c1=O
220

* * *

target: PARP7 (Homo sapiens (Human), UniProt Q7Z3E1); experiment: PARP7 enzyme activity test; format: biochemical
Sequence (Q7Z3E1 whole entry): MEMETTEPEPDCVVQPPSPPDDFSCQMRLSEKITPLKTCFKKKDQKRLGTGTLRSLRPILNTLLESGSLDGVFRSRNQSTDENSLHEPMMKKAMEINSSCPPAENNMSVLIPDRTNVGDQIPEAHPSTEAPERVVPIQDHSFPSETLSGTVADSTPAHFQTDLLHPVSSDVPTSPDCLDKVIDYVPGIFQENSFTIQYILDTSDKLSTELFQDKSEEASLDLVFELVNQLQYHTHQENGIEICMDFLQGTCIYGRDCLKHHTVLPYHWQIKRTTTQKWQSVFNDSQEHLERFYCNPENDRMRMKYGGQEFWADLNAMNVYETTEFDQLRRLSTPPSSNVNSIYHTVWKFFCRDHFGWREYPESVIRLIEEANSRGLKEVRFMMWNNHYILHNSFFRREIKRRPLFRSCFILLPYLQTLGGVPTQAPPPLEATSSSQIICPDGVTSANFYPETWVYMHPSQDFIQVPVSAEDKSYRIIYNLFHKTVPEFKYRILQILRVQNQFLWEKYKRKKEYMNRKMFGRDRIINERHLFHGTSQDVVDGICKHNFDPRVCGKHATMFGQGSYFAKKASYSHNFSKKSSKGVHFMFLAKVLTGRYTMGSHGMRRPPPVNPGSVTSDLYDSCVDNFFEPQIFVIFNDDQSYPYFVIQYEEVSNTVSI
Readout Label: pIC50
Keep in mind that pIC50 stands for -log10 of concentration in molar terms.

Look at this molecule and give its reported pIC50. CCc1cc2ncc(CN3CC=C(c4ccc(C(=O)NC)nc4)CC3)cc2[nH]c1=O
7.40

* * *

test: Pharmacokinetic test in rats; format: in vivo, SD rats; details: male, Sprague-Dawley, iv; rat plasma, i.v. 2.5 mg/kg
Readout Label: clearance (mL/min/kg)
Give the value in mL/min/kg but do not write mL/min/kg after it.

Look at this compound and give its reported clearance. CCc1cc2ncc(CN3CC=C(c4ccc(C(=O)NC)nc4)CC3)cc2[nH]c1=O [Compound 14]
0.494

* * *

Below: a set of entries, each annotated with reported inhibition at 10 µM.
test system: MDA-MB-436 cells; test: MDA-MB-436 cell activity test; type: cell-based; conditions: Homo sapiens; MDA-MB-436 cells, 10 μM; read-out: Max inh. % 10 μM

| Compound | inhibition at 10 µM |
| --- | --- |
| CCc1cc2ncc(CN3CC=C(c4ccc(NC(=O)C5CC5)nc4)CC3)cc2[nH]c1=O [Compound 22] | 89.1% |

Look at this compound and give its reported inhibition at 10 µM. CCc1cc2ncc(CN3CC=C(c4ccc(NC(=O)c5cnn(C)c5)nc4)CC3)cc2[nH]c1=O [Compound 30]
91.8%

Look at this compound and give its reported inhibition at 10 µM. CCc1cc2ncc(CN3CC=C(c4ccc(C(=O)NC)nc4)CC3)cc2[nH]c1=O [Compound 14]
89.1%

Look at this compound and give its reported inhibition at 10 µM. CCc1cc2ncc(CN3CC=C(c4ccc(C(=O)N[C@@H]5C[C@@H]5F)nc4)CC3)cc2[nH]c1=O [Compound 26]
90.9%

Look at this compound and give its reported inhibition at 10 µM. CCc1cc2ncc(CN3CC=C(c4cn5cc(C(F)(F)F)nc5cn4)CC3)cc2[nH]c1=O [Compound 33]
77.6%

Look at this compound and give its reported inhibition at 10 µM. CCc1cc2ncc(C=C3CCN(c4ccc(C(=O)Nc5cnn(C)c5)nc4)CC3)cc2[nH]c1=O [Compound 32]
99.1%

Look at this compound and give its reported inhibition at 10 µM. CCc1cc2ncc(CN3CC=C(c4ccc(C(=O)Nc5cnn(C)c5)nc4)CC3)cc2[nH]c1=O [Compound 20]
91.8%

* * *

Record: IC50 reported on PARP-1 enzyme (Homo sapiens (Human), UniProt P09874).
Sequence (P09874 whole entry): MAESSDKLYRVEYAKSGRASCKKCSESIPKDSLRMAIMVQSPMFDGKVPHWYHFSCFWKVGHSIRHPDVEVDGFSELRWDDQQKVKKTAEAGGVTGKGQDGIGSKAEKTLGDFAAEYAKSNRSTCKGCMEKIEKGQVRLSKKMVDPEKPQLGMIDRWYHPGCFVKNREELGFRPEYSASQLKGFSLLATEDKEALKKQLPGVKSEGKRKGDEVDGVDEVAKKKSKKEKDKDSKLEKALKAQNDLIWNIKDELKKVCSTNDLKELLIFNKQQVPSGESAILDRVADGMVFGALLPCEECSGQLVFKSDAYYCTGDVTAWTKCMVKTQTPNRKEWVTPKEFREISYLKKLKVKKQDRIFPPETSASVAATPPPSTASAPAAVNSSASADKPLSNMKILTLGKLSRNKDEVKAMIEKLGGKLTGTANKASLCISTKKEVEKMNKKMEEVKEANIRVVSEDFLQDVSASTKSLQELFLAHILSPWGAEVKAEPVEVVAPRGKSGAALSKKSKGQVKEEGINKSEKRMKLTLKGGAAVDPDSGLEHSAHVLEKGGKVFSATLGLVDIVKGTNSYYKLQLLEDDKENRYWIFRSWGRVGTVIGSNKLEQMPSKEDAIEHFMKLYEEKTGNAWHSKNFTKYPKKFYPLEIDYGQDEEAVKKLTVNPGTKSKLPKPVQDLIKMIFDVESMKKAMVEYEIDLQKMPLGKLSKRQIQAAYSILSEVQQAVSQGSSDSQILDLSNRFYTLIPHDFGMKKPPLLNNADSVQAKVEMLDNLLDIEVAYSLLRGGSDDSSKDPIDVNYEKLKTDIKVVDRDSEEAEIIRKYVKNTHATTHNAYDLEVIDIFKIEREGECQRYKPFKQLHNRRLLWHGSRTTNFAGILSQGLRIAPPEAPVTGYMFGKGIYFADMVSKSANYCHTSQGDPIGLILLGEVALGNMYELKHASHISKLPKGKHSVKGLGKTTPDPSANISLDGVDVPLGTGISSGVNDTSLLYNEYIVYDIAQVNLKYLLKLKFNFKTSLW
Give the value in nM but do not write nM after it.

| Smiles Str | Unit Of Measurement | IC50 |
| --- | --- | --- |
| CCc1cc2ncc(CN3CC=C(c4ccc(NC(=O)C5CC5)nc4)CC3)cc2[nH]c1=O | nM | 0.31 |
| CCc1cc2ncc(CN3CC=C(c4ccc(C(=O)NC5CC5)nc4)CC3)cc2[nH]c1=O | nM | 0.36 |
| CCc1cc2ncc(CN3CC=C(c4ccc(NC(=O)c5cnn(C)c5)nc4)CC3)cc2[nH]c1=O | nM | 0.26 |

Look at this molecule and give its reported IC50. CCc1cc2ncc(CN3CC=C(c4cn5cc(C)nc5cn4)CC3)cc2[nH]c1=O
0.41

* * *

Record: IC50 reported on PARP-1 enzyme (Homo sapiens (Human)).
Give the value in nM but do not write nM after it.

| Smiles Str | Unit Of Measurement | IC50 |
| --- | --- | --- |
| CCc1cc2ncc(CN3C4CCC3CN(c3ccc(C(=O)NC)nc3)C4)cc2[nH]c1=O | nM | 1.6 |
| CCc1cc2ncc(CN3CC=C(c4ccc(C(=O)Nc5cnn(C)c5)nc4)CC3)cc2[nH]c1=O | nM | 0.26 |

Observed IC50 on PARP-1 enzyme (Homo sapiens (Human)) for CCc1cc2ncc(CN3CC=C(c4ccc(C(=O)NC)nc4)CC3)cc2[nH]c1=O , please.
0.59

Observed IC50 on PARP-1 enzyme (Homo sapiens (Human)) for CCc1cc2ncc(CN3CC=C(c4ccc(C(=O)N[C@@H]5C[C@@H]5F)nc4)CC3)cc2[nH]c1=O , please.
0.41

Observed IC50 on PARP-1 enzyme (Homo sapiens (Human)) for CCc1cc2ncc(CN3CC=C(c4cn5cc(C(F)(F)F)nc5cn4)CC3)cc2[nH]c1=O , please.
0.71

* * *

biological target: PARP2 (Homo sapiens (Human), UniProt Q9UGN5)
Sequence (Q9UGN5 whole entry): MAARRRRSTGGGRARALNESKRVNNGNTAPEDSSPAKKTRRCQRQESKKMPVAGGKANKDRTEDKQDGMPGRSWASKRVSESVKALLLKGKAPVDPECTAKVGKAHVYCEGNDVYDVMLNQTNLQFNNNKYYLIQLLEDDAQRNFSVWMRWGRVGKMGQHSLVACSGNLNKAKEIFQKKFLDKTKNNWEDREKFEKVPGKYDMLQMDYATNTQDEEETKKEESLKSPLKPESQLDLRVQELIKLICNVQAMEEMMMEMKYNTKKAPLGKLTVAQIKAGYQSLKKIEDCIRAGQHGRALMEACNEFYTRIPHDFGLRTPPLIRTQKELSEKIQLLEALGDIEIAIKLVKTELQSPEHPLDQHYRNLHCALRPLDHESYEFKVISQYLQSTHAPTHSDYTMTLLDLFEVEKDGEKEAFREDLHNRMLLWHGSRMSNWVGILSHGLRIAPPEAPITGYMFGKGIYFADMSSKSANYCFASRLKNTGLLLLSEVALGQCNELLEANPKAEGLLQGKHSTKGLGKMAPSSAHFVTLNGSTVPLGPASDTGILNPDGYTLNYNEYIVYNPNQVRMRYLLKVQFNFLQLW
Readout Label: IC50 (nM)
Give the value in nM but do not write nM after it.

Look at this compound and give its reported IC50. CCc1cc2ncc(CN3CC=C(c4ccc(C(=O)NC)nc4)CC3)cc2[nH]c1=O
31

* * *

assay: Pharmacokinetic test in mice; assay type: in vivo, ICR mice; conditions: male, ICR, iv; mouse plasma, i.v. 2.5 mg/kg
Readout Label: clearance

Look at this molecule and give its reported clearance. CCc1cc2ncc(CN3CC=C(c4ccc(C(=O)NC)nc4)CC3)cc2[nH]c1=O
0.164 mL/min/kg
